Target or system: PD-1/PD-L1 (Homo sapiens (Human), UniProt Q9NZQ7)
Sequence (Q9NZQ7 19-238): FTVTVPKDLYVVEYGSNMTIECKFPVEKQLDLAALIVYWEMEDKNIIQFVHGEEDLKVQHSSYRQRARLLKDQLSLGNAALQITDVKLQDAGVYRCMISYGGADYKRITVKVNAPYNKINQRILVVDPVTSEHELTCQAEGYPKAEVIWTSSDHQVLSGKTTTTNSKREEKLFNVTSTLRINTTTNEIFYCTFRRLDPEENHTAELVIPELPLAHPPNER
Assay method text: PD-1/PD-L1 biochemical protein-protein interaction assay (ALPHA)
Condition details: 0.3 nM His tagged PD-L1, 2.5 nM biotinylated Fc-PD-1, 60 minutes at 25° C., read-out: IC50 PD-L1-PD1
Method: Binding of the protein pairs is measured using a bead based Amplified Luminescent Proximity Homogeneous Assay (ALPHA) platform. […] After an assay reaction time of 60 minutes at 25° C., binding was measured with addition of 20 μg/mL ALPHA assay acceptor beads (anti-His coated) and 20 µg/mL ALPHA assay donor beads (streptavidin coated). IC50 values were calculated from the fit of the dose-response curves to a four-parameter equation.
Measure name: IC50 (nM)

> print(dat)
                                   molecule                          target.or.system  uom  meas.value
1  COc1nc(-c2cccc(-c3cccc(-c4cnc(CNC5CCOCC5)c(OC)n4)c3Cl)c2Cl)cnc1CNC[C@@H]1CCC(=O)N1  PD-1/PD-L1 (Homo sapiens (Human), UniProt Q9NZQ7)   nM       0.106

[A] COc1nc(-c2cccc(-c3cccc(-c4cnc(CNC5CC6CC6C5)c(OC)n4)c3Cl)c2Cl)cnc1CNC[C@@H]1CCC(=O)N1 (stereo partly drawn)
[B] COc1nc(-c2cccc(-c3cccc(-c4cnc(CN5CC6(CCC(=O)N6)C5)c(OC)n4)c3F)c2Cl)ccc1CN1CC2(CCC(=O)N2)C1
Returns the identifier with the smallest measured IC50 among A and B . Which one? Tell me its label.
B

[A] COc1nc(-c2cccc(-c3cccc(-c4cc(C)c(CN5CC6(C5)CN(C(C)=O)C6)c(OC)n4)c3Cl)c2Cl)cnc1CNC[C@@H]1CCC(=O)N1
[B] COc1nc(-c2cccc(-c3cccc(-c4cnc(CNC[C@@H]5CCC(=O)N5)c(OC)n4)c3Cl)c2Cl)cnc1CNCc1cccnc1
[C] COc1nc(-c2cccc(-c3cccc(-c4cnc(CNC[C@@H]5CCC(=O)N5)c(OC)n4)c3Cl)c2Cl)ccc1CN1CC2(CNC(=O)N2)C1
hey, can you rank those molecules up there by IC50? biggest number first please // rank by listing labels in the order requested
B, C, A

---

Target or system: PD-1/PD-L1 (Homo sapiens (Human))
Assay method text: PD-1/PD-L1 biochemical protein-protein interaction assay (ALPHA)
Condition details: 0.3 nM His tagged PD-L1, 2.5 nM biotinylated Fc-PD-1, 60 minutes at 25° C., read-out: IC50 PD-L1-PD1
pIC50: −log10 of the molar value.
Measure name: pIC50

> print(dat)
                                   molecule                   target.or.system  measure.name  meas.value
1  COc1nc(-c2cccc(-c3cccc(-c4cnc(CNC[C@H]5CCC[C@@H]5O)c(OC)n4)c3Cl)c2Cl)cnc1CNC[C@@H]1CCC(=O)N1 [compound 54]  PD-1/PD-L1 (Homo sapiens (Human))         pIC50        9.74

[I] COc1nc(-c2cccc(-c3cccc(-c4cnc(CN5CCC(C6CCCO6)C5)c(OC)n4)c3Cl)c2Cl)cnc1CNC[C@@H]1CCC(=O)N1 (stereo partly drawn)
[II] COc1nc(-c2cccc(-c3cccc(-c4cnc(CN5CC(OC)C5)c(OC)n4)c3Cl)c2Cl)cnc1CNC[C@@H]1CCC(=O)N1
Of I and II , whose reported pIC50 is the larger number? Give the chosen item's label as your response.
I
